Every entry's value here was drawn from the supplement of paper PMC12494721.

# System: Escherichia coli IAI1
# Assay: growth (OD595) fold change vs plate DMSO controls (fold change (ratio)); higher = more growth
# Experimental Setup: 20 µM; incubation time: 27 h, anaerobic, 37 °C
Counter-ions that a name gives are not always drawn.
Endpoint Name: growth
// return a plain number; no unit text

Exercise: Give the measured growth of CN1C[C@H](C(=O)N[C@]2(C)O[C@@]3(O)[C@@H]4CCCN4C(=O)[C@H](Cc4ccccc4)N3C2=O)C[C@@H]2c3cccc4[nH]cc(c34)C[C@H]21 [Dihydroergotamine tartrate] .
Key: 1.13

Exercise: Any idea what growth was measured for COC(=O)N(C(=O)N1CO[C@@]2(C(=O)OC)Cc3cc(Cl)ccc3C2=N1)c1ccc(OC(F)(F)F)cc1 ?
Key: 0.998

Exercise: Given CCN(C)C(=O)Oc1cccc([C@H](C)N(C)C)c1 [Rivastigmine] , state its recorded growth.
Key: 1.03

Exercise: GET /values?readout=growth&item= CN/C(=N\[N+](=O)[O-])NCc1cnc(Cl)s1
Key: 0.968

----------
Field: fold change of 2-Phenylethylamine concentration. Provide a value for each of the compounds that follow.
# Test system: Ruminococcus gnavus DSM 108212
# Assay: fold change of 2-Phenylethylamine concentration vs plate DMSO controls (fold change (ratio)); higher = more amine produced, active = hit call of the paper (significant change in both replicates, either direction)
# Experimental Setup: 20 µM; incubation time: 27 h, anaerobic, 37 °C
Where a name gives a salt, the structure may show the parent alone.
Output: the number by itself.

Exercise: // map CS(=O)(=O)c1ccc(C(=O)C2C(=O)CCCC2=O)c([N+](=O)[O-])c1 to recorded fold change of 2-Phenylethylamine concentration (system: Ruminococcus gnavus DSM 108212)
Key: 0.999

Exercise: Please state recorded fold change of 2-Phenylethylamine concentration (tested on Ruminococcus gnavus DSM 108212) of CCCSP(=O)(OCC)Oc1ccc(Br)cc1Cl (stereo unspecified)
Key: 0.9

Exercise: Which fold change of 2-Phenylethylamine concentration is reported with Ruminococcus gnavus DSM 108212 for this entry: CCNc1nc(Cl)nc(NC(C)C)n1 ?
Key: 1.1

Exercise: // lookup fold change of 2-Phenylethylamine concentration | system=Ruminococcus gnavus DSM 108212 | key= COC(=O)NC(=S)Nc1ccccc1NC(=S)NC(=O)OC
Key: 0.936

Exercise: Test system Ruminococcus gnavus DSM 108212; read-out fold change of 2-Phenylethylamine concentration; what value for Cc1ccccc1[N+](=O)[O-] [2-Nitrotoluene] ?
Key: 0.978

Exercise: Any idea what fold change of 2-Phenylethylamine concentration came out for CN(C)C(=O)Oc1cc(OC(=O)N(C)C)cc(C(O)CNC(C)(C)C)c1 (stereo unspecified) [Bambuterol hydrochloride] on Ruminococcus gnavus DSM 108212?
Key: 1.02

Exercise: Hi! What's the reported fold change of 2-Phenylethylamine concentration for N#Cc1c(Cl)c(Cl)c(Cl)c(C#N)c1Cl on Ruminococcus gnavus DSM 108212?
Key: 0.804

Exercise: # value lookup — system Ruminococcus gnavus DSM 108212, readout fold change of 2-Phenylethylamine concentration, item CCOC(=O)c1cncn1[C@H](C)c1ccccc1 [Etomidate]
Key: 1.19

Exercise: Under Ruminococcus gnavus DSM 108212: fold change of 2-Phenylethylamine concentration value of CS(=O)(=O)c1cc(C(F)(F)F)ccc1C(=O)c1cnoc1C1CC1 ?
Key: 1

Exercise: Look up fold change of 2-Phenylethylamine concentration with Ruminococcus gnavus DSM 108212 for this compound: COc1cc2c(c(OC)c1OC)-c1ccc(OC)c(=O)cc1[C@@H](NC(C)=O)CC2 [Colchicine]
Key: 0.829

Exercise: # get_value(readout= fold change of 2-Phenylethylamine concentration, system= Ruminococcus gnavus DSM 108212) for CC1C=CC=CCCC=CC=CC=CC=CC(OC2OC(C)C(O)C(N)C2O)CC2OC(O)(CC(O)C(O)CCC(O)CC(O)CC(O)CC(=O)OC(C)C(C)C1O)CC(O)C2C(=O)O (stereo unspecified) [Nystatine]
Key: 0.998

----------
So I've got a bunch of compounds here, and I need their fold change of Cadaverine concentration values.
# Tested on: Escherichia coli IAI1
# Assay: fold change of Cadaverine concentration vs plate DMSO controls (fold change (ratio)); higher = more amine produced, active = hit call of the paper (significant change in both replicates, either direction)
# Experimental Setup: 20 µM; incubation time: 27 h, anaerobic, 37 °C
Structures can show the parent of a compound that is named as a salt.
// print number alone

Exercise: What value of fold change of Cadaverine concentration on Escherichia coli IAI1 does CC(=O)[C@H]1CC[C@H]2[C@@H]3CC[C@H]4C[C@H](O)CC[C@]4(C)[C@H]3C(=O)C[C@]12C have?
Key: 1

Exercise: Quick check: fold change of Cadaverine concentration on Escherichia coli IAI1, item COc1cc2c(c(OC)c1OC)-c1ccc(OC)c(=O)cc1[C@@H](NC(C)=O)CC2 ?
Key: 1.04

Exercise: Which measured fold change of Cadaverine concentration belongs to C[C@@H]1CN([C@H]2CC[C@](C#N)(c3ccc(F)cc3)CC2)CC[C@]1(C(=O)O)c1ccccc1 [Levocabastine hydrochloride] , tested on Escherichia coli IAI1?
Key: 0.916

Exercise: Give Escherichia coli IAI1 fold change of Cadaverine concentration for CC(=O)OC1CN2CCC1CC2 (stereo unspecified) [Aceclidine hydrochloride]
Key: 0.951

Exercise: Record lookup: for Escherichia coli IAI1, what fold change of Cadaverine concentration belongs to CCCSP(=O)(OCC)Oc1ccc(Br)cc1Cl (stereo unspecified) ?
Key: 1.03

Exercise: Lab request: please report fold change of Cadaverine concentration under test system Escherichia coli IAI1 for COc1cccc(C2(O)CCCCC2CN(C)C)c1 (stereo unspecified) [Tramadol hydrochloride]
Key: 0.969

Exercise: Which fold change of Cadaverine concentration is reported with Escherichia coli IAI1 for this entry: c1ccc2c(c1)OCC(C1=NCCN1)O2 (stereo unspecified) [Idazoxan hydrochloride] ?
Key: 0.996

Exercise: I'm curious: which fold change of Cadaverine concentration was measured for CCNC1(c2cccs2)CCCCC1=O (stereo unspecified) [Tiletamine hydrochloride] tested on Escherichia coli IAI1?
Key: 0.995

Exercise: Notebook entry, Escherichia coli IAI1 assay: fold change of Cadaverine concentration of Cc1cc(C)c(C2=C(OC(=O)CC(C)(C)C)C3(CCCC3)OC2=O)c(C)c1 = ?
Key: 0.983

Exercise: Tell me reported fold change of Cadaverine concentration for O=C(Nc1ccc(F)cc1F)c1cccnc1Oc1cccc(C(F)(F)F)c1 , tested with Escherichia coli IAI1.
Key: 1.03

Exercise: Hello, I am looking for reported fold change of Cadaverine concentration with Escherichia coli IAI1 for CCCCN(CCCC)SN(C)C(=O)Oc1cccc2c1OC(C)(C)C2 . Could you help?
Key: 1.03

Exercise: API: value(readout=fold change of Cadaverine concentration, system=Escherichia coli IAI1) for record CCC1(c2cccc(O)c2)CCCCN(C)C1 (stereo unspecified) [Meptazinol hydrochloride]
Key: 1.01

Exercise: What is its fold change of Cadaverine concentration for Escherichia coli IAI1? Entry: Oc1ccc(C(c2ccc(O)cc2)(C(F)(F)F)C(F)(F)F)cc1
Key: 1.03

Exercise: # query: fold change of Cadaverine concentration | item CCSC(C)CC1CC(=O)C(/C(CC)=N/OC/C=C/Cl)=C(O)C1 (mixture of isomers) | system: Escherichia coli IAI1
Key: 1

Exercise: Notebook entry, Escherichia coli IAI1 assay: fold change of Cadaverine concentration of O=C(NC(=O)c1c(F)cccc1F)Nc1ccc(OC(F)(F)C(F)OC(F)(F)F)c(Cl)c1 (stereo unspecified) = ?
Key: 0.872

Exercise: Given the entry CCC(C)(c1ccc(O)cc1)c1ccc(O)cc1 , what fold change of Cadaverine concentration was observed with Escherichia coli IAI1?
Key: 1

----------
# System: Klebsiella aerogenes DSM 30053
# Assay: fold change of Histamine concentration vs plate DMSO controls (fold change (ratio)); higher = more amine produced, active = hit call of the paper (significant change in both replicates, either direction)
# Experimental Setup: 20 µM; incubation time: 27 h, anaerobic, 37 °C
Structures can show the parent of a compound that is named as a salt.
Task for the reader: assign each of the following compounds its reported fold change of Histamine concentration.

Exercise: Returns the measured fold change of Histamine concentration for the input compound. Input: O=C(O)C(F)(F)C(F)(F)C(F)(F)C(F)(F)C(F)(F)C(F)(F)C(F)(F)C(F)(F)F
Key: 1.01 (inactive)

Exercise: For the compound shown here, O=C(NC(=O)c1c(F)cccc1F)Nc1ccc(Cl)cc1 , give the reported fold change of Histamine concentration.
Key: 1.01 (inactive)

Exercise: I'd like to know its fold change of Histamine concentration. The compound in question is CC(C)=CC1C(C(=O)OCc2cccc(Oc3ccccc3)c2)C1(C)C (stereo not given)
Key: 0.924 (inactive)

Exercise: fold change of Histamine concentration lookup needed for Cc1cc(C(C#N)c2ccc(Cl)cc2)c(Cl)cc1NC(=O)c1cc(I)cc(I)c1O (stereo not given) , thanks.
Key: 1.07 (inactive)

Exercise: Report fold change of Histamine concentration for C#CCN(C)[C@H](C)Cc1ccccc1 [Selegiline hydrochloride] please.
Key: 0.982 (inactive)

Exercise: Sample CC(COc1ccc(Oc2ccccc2)cc1)Oc1ccccn1 (stereo not given) — what was its fold change of Histamine concentration?
Key: 1.02 (inactive)

Exercise: # input compound: C[C@]12CC[C@H]3[C@@H](CCC4=CC(=O)CC[C@@H]43)[C@@H]1CC[C@@H]2O ; wanted: its fold change of Histamine concentration
Key: 0.993 (inactive)

Exercise: Recorded fold change of Histamine concentration for CC(C)(C)C(O)(CCc1ccc(Cl)cc1)Cn1cncn1 (stereo not given) , please?
Key: 0.981 (inactive)

Exercise: Could you tell me which fold change of Histamine concentration is on file for CC(Oc1ccc(Oc2ncc(C(F)(F)F)cc2Cl)cc1)C(=O)O (stereo not given) ?
Key: 0.989 (inactive)

Exercise: // fold change of Histamine concentration lookup, key: CN1C(=O)COc2c(C(=O)NC3CN4CCC3CC4)cc(Cl)cc21 (stereo not given) [Azasetron hydrochloride]
Key: 1.03 (inactive)
